- System: Erythrocyte
- measurement-description: Hemolytic activity in male Sprague-Dawley rat erythrocytes assessed as concentration required for 10% hemolysis incubated for 1 hr by absorbance based method
- Format: toxicity, cell-based
Non-standard residues stand in square brackets, D forms with d. Residues, ends and D or L forms follow the SMILES beside them. *: point of attachment. X3 = NC(=O)[C@H](Cc1c[nH]cn1)NC(=O)CNC(=O)[C@@H](N)CN(CCc1c[nH]c2ccccc12)*; Gly(N(CH2)2(3-indolyl)) = O=C(O)CNCCc1c[nH]c2ccccc12; Nspe = C[C@H](NCC(=O)O)c1ccccc1; Nlys = NCCCCNCC(=O)O
outcome-measure: HC10 (µM)

{"compound": "C[C@@H](c1ccccc1)N(CC(=O)N(CCCCN)CC(=O)N(CC(=O)N(CC(=O)N(CCCCN)CC(=O)N(CC(=O)N(CC(=O)N(CCCCN)CC(=O)N(CCc1c[nH]c2ccccc12)CC(=O)N(CCc1c[nH]c2ccccc12)C[C@H](N)C(=O)NCC(=O)N[C@@H](Cc1c[nH]cn1)C(N)=O)[C@@H](C)c1ccccc1)[C@@H](C)c1ccccc1)[C@@H](C)c1ccccc1)[C@@H](C)c1ccccc1)C(=O)CN(C(=O)CNCCCCN)[C@@H](C)c1ccccc1 (H-[Nlys][Nspe][Nspe][Nlys][Nspe][Nspe][Nlys][Nspe][Nspe][Nlys][Gly(N(CH2)2(3-indolyl))]-X3)", "observed-measurement": 25.4}
{"compound": "C[C@@H](c1ccccc1)N(CC(N)=O)C(=O)CN(C(=O)CN(CCCCN)C(=O)CN(C(=O)CN(C(=O)CN(CCCCN)C(=O)CN(C(=O)CN(C(=O)CN(CCCCN)C(=O)CN(CCc1c[nH]c2ccccc12)C(=O)CN(CCc1c[nH]c2ccccc12)C(=O)CNCCCCN)[C@@H](C)c1ccccc1)[C@@H](C)c1ccccc1)[C@@H](C)c1ccccc1)[C@@H](C)c1ccccc1)[C@@H](C)c1ccccc1", "observed-measurement": 7.9}
